assay: Pharmacokinetics, single oral dosing, SAD study BP25129; format: in vivo, Human; details: human, plasma; 330 mg oral, tablet, n = 6 male, ± percent coefficient of variation
Assay Readout: Cmax

- Sample Smiles: "Cc1onc(-c2ccc(F)cc2)c1COc1ccc(C(=O)N2CCS(=O)(=O)CC2)cn1"
  Recorded Result: "2120 ng/mL"

---

test: Pharmacokinetics, single intravenous dosing; type: in vivo, NHP, Cynomolgus macaque; settings: cynomolgus monkey, plasma, 1.0 mg/kg i.v., n=3, read-out: Total CL

- Molecule: "Cc1onc(-c2ccc(F)cc2)c1COc1ccc(C(=O)N2CCS(=O)(=O)CC2)cn1 [basmisanil]"
  clearance, mL/min/kg: 3

---

molecular target: GABAA-α5 receptors (Homo sapiens, UniProt P18507+P31644); construct: occupancy at the GABAA-α5 subunit-containing receptors in the human brain after oral dosing; from tissue; host or cells: brain of healthy human volunteers, in vivo PET; test: [11C]-Ro 15-4513 PET receptor occupancy study in healthy volunteers; assay type: in vivo; settings: Emax model, nine subjects; read-out: EC50 of receptor occupancy, free plasma concentration
pEC50: −log10 of the molar value.

- Compound: "Cc1onc(-c2ccc(F)cc2)c1COc1ccc(C(=O)N2CCS(=O)(=O)CC2)cn1 [basmisanil]"
  pEC50: 7.17

---

experiment: Plasma levels, object retrieval task; format: in vivo, Macaca fascicularis; conditions: cynomolgus monkey, oral, 3 mg/kg p.o., read-out: free plasma concentration

- Sample Smiles: "Cc1onc(-c2ccc(F)cc2)c1COc1ccc(C(=O)N2CCS(=O)(=O)CC2)cn1"
  concentration at 3 h / nM: 156

---

test: Plasma exposure in EEG study; assay type: in vivo; settings: human, oral, 240 mg twice daily, day 14, 4 h post morning dose, mean ± SD

- Compound: "Cc1onc(-c2ccc(F)cc2)c1COc1ccc(C(=O)N2CCS(=O)(=O)CC2)cn1 [basmisanil]"
  concentration at 4 h: "4030 ng/mL"

---

assay: Pharmacokinetics, single oral dosing, SAD study BP25129; format: in vivo, Human; conditions: human, plasma; 45 mg oral, tablet, n = 6 male

- Molecule: "Cc1onc(-c2ccc(F)cc2)c1COc1ccc(C(=O)N2CCS(=O)(=O)CC2)cn1 [basmisanil]"
  bioavailability: "~75%"

---

test: Pharmacokinetics, single oral dosing, SAD study BP25129; format: in vivo, Human; details: human, plasma; 330 mg oral, tablet, n = 6 male, median; read-out: Tmax (range)
Assay Readout: Tmax (h)

- Compound: "Cc1onc(-c2ccc(F)cc2)c1COc1ccc(C(=O)N2CCS(=O)(=O)CC2)cn1 [basmisanil]"
  Assay Readout: "Tmax"
  Unit Label: "h"
  Recorded Result: 4

---

test: Pharmacokinetics, single intravenous dosing; type: in vivo; settings: C57/Bl6, mouse, plasma, 2.0 mg/kg i.v., 2 male, read-out: Vss

- Compound: "Cc1onc(-c2ccc(F)cc2)c1COc1ccc(C(=O)N2CCS(=O)(=O)CC2)cn1 [basmisanil]"
  Unit Label: "L/kg"
  Vd: 1.3

---

experiment: Pharmacokinetics, single oral dosing; type: in vivo; details: Wistar, rat, plasma; 9 mg/kg oral, microsuspension, n = 2 male

- Molecule: "Cc1onc(-c2ccc(F)cc2)c1COc1ccc(C(=O)N2CCS(=O)(=O)CC2)cn1 [basmisanil]"
  bioavailability / %: 41

---

biological target: human GABAA α1β3γ2 receptors (Homo sapiens, UniProt P14867+P18507); assay: [3H]-flumazenil competition binding, HEK293 membranes; conditions: 1 nM [3H]-flumazenil
pKi: −log10 of the molar value.

- Molecule: "Cc1onc(-c2ccc(F)cc2)c1COc1ccc(C(=O)N2CCS(=O)(=O)CC2)cn1 [basmisanil]"
  pKi: 5.99

---

assay: Pharmacokinetics, single intravenous dosing; assay type: in vivo, NHP, Cynomolgus macaque; conditions: cynomolgus monkey, plasma, 1.0 mg/kg i.v., n=3, read-out: Vss

- Compound: "Cc1onc(-c2ccc(F)cc2)c1COc1ccc(C(=O)N2CCS(=O)(=O)CC2)cn1 [basmisanil]"
  Unit Label: "L/kg"
  Vd: 0.9
